Data origin: patent US10030012B2

target: human M4 receptor (Homo sapiens (Human)); assay: In vitro M4 functional assay (intracellular calcium, FLiPR Tetra); conditions: CHOK1 cells stably expressing human M4 receptor and Gα16; calcium flux
Sequence (P08173 whole entry): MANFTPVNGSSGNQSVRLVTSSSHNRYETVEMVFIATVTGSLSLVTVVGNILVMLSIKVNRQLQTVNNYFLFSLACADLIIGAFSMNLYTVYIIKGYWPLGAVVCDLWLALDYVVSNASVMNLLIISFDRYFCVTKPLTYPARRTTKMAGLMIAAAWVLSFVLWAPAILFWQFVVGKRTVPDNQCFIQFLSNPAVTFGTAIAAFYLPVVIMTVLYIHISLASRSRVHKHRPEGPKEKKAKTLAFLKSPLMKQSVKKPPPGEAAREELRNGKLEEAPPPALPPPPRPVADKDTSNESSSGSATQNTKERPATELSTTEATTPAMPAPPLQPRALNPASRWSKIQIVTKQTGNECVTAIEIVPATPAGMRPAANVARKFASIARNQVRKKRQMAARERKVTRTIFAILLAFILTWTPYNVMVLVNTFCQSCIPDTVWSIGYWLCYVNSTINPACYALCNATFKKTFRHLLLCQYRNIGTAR
pEC50: −log10 of the molar value.
experimentalReadout: pEC50

CCOC(=O)N1CCCC(N2CCC(n3cc(-c4ccc(Cl)cc4)cn3)CC2)CC1 (stereo not shown) [Example 8]	6.49

(P) CCOC(=O)N1CCC(N2CCC(c3cc(C)cnc3OCC)CC2)CC1 [Example 47]
(Q) CCOC(=O)N1CCCC(N2CCC(c3nnc(C(C)C)o3)CC2)CC1 (stereo not shown) [Example 15]
(R) CCOC(=O)N1CCC(N2CCC(c3nccn3C)CC2)CC1 [Example 1]
(S) CCOC(=O)N1CCCC(N2CCC(c3cccn(C)c3=O)CC2)CC1 (stereo not shown) [Example 39]
(T) CCOC(=O)N1CCCC(N2CCC(c3cccnc3OCC)CC2)CC1 (stereo not shown) [Example 53]
Exercise: Hi! Can you put these in order of pEC50, lowest number first? Provide the labels, sequenced as the question asks.
Solution: R, Q, S, P, T

(A) CCOC(=O)N1CCCC(N2CCC(n3cccn3)CC2)CC1 (stereo not shown) [Example 4]
(B) CCOC(=O)N1CCC[C@H](N2CCC(c3nccn3C)CC2)CC1 [Example 83]
Exercise: compare A and B ; which one has the greater pEC50? Your answer should be the label attached to the chosen record.
Solution: A

(P) CCOC(=O)N1CCCC(N2CCC(c3nc(C(F)(F)F)ncc3OC)CC2)CC1 (stereo not shown) [Example 60]
(Q) CCOC(=O)N1CCCC(N2CCC(c3cccnc3OCc3cscn3)CC2)CC1 (stereo not shown) [Example 76]
(R) CCOC(=O)N1CCCC(N2CCC(c3cccnc3OC(F)F)CC2)CC1 (stereo not shown) [Example 52]
(S) CCOC(=O)N1CCCC(N2CCC(c3cncc(N(C)C)n3)CC2)CC1 (stereo not shown) [Example 50]
(T) CCOC(=O)N1CCCC(N2CCC(c3ncccn3)CC2)CC1 (stereo not shown) [Example 74]
Exercise: Put the entries in order of pEC50, starting with the largest number. Provide the labels, sequenced as the question asks.
Solution: R, Q, P, S, T

(A) CCOC(=O)N1CCCC(N2CCC(c3cccnc3N(C)C)CC2)CC1 (stereo not shown) [Example 65]
(B) CCOC(=O)N1CCCC(N2CCC(n3nccc3C#N)CC2)CC1 (stereo not shown) [Example 27]
Exercise: compare A and B ; which one has the greater pEC50? Your answer should be the label attached to the chosen record.
Solution: A

(I) CCOC(=O)N1CCCC(N2CCC(n3nccc3-c3cnn(C(C)C)c3)CC2)CC1 (stereo not shown) [Example 22]
(II) CCOC(=O)N1CCCC(N2CCC(n3nccc3C(=O)NCC3CC3)CC2)CC1 (stereo not shown) [Example 24]
Exercise: Select the item whose pEC50 value is smaller, choosing between I and II . Your answer should be the label attached to the chosen record.
Solution: II
(II: 5.86, I: 6.70)

====

target: UniProt:P08172; test: In vitro M2 functional assay (intracellular calcium, FLiPR Tetra); assay type: cell-based; conditions: response at 10 μM compound, relative to an EC100 concentration of acetylcholine; read-out: M2 % RE @ 10 μM
Sequence (P08172 whole entry): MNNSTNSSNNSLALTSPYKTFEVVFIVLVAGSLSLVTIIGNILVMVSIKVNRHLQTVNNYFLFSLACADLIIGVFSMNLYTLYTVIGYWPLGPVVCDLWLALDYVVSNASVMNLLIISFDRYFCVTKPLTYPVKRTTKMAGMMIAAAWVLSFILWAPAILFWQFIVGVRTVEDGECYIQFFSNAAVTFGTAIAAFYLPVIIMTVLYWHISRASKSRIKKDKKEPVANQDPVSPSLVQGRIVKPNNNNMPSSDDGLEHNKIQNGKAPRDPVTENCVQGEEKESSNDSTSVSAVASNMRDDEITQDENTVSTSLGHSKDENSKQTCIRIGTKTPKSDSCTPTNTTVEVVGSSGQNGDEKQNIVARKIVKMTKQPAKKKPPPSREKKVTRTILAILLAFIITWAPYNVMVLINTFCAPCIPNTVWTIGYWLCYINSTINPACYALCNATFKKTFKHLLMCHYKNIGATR
experimentalReadout: activation at 10 µM (%)

CCOC(=O)N1CCCC(N2CCC(c3cccnc3OC(C)C)CC2)CC1 (stereo not drawn)	26
CCOC(=O)N1CCCC(N2CCC(c3ncccn3)CC2)CC1 (stereo not drawn)	20
CCOC(=O)N1CCCC(N2CCC(n3nccc3-c3ccc(Cl)cc3)CC2)CC1 (stereo not drawn)	25
CCOC(=O)N1CCC(N2CCC(c3nccn3C)CC2)CC1	34
CCOC(=O)N1CCCC(N2CCC(n3ccc(C)n3)CC2)CC1 (stereo not drawn)	24
CCOC(=O)N1CCCC(N2CCC(n3nccc3C)CC2)CC1 (stereo not drawn)	28
CCOC(=O)N1CCCC(N2CCC(n3nccc3C(F)(F)F)CC2)CC1 (stereo not drawn)	21
CCOC(=O)N1CCCC(N2CCC(n3nccc3-c3ccnn3C)CC2)CC1 (stereo not drawn)	26
CCOC(=O)N1CCCC(N2CCC(c3cccnc3OC(F)F)CC2)CC1 (stereo not drawn)	25
